Measured values drawn from the Human Domainome abundance scans (Beltran et al. 2025) for this set.

Quick reference: abundance fitness of the listed items.
B1: Connector enhancer of kinase suppressor of ras 2, residues 9 to 71; numbered along this chain, Q8WXI2 (parent)
chain: SKWSPSQVVDWMKGLDDCLQQYIKNFEREKISGDQLLRITHQELEDLGVSRIGHQELILEAVD

Variants of: B1
Experiment: abundance fitness (aPCA) (normalised: wild type 0, dead -1); higher = more abundant; growth selection in yeast, the domain comes from the species named
Conditions: Homo sapiens
VALUE_KIND: abundance fitness

In [3]: df
Out[3]:
     var  result_number
 0  E56R         -0.009
 1  I52K          0.048
 2  L59S         -0.652
 3  L19I         -0.102
 4  E27Q         -0.101
 5  E43S         -0.137
 6  L37C         -0.108
 7  I23A          0.006
 8  D34M         -0.108
 9  S50L         -0.072
10  D46W         -0.192
11  Q35K         -0.054
12  T40M         -0.907
13  Q35C         -0.328
14  L37D         -0.254
15  R38E         -0.302
16  D63Y         -0.096
17  E60F         -0.615
18  L15S         -0.539
19  L44I         -0.982
20  L36C         -0.961
21  Q21L         -0.275
22  R38L         -0.377
23  I39Q         -0.653
24  R38N         -0.098
25  S32F         -0.493
26  Q42M         -0.319
27  L57D         -0.677
28  V49N           -1.1
29  I23N         -0.475
